protocol: soluble on expression in E. coli; label from the status in PepcDB or PDB records

- seq: "MSLKRIKTVLAATDLSAPARHAAMRAALLAGQTDAKLGLLHVVDLQLMEHLRSFAGRSGEAAERRLIGEAMKELERLATDMTHRWGSAVEVRLVVGAVLKEIVAHADTLDADLLVMGARGAGFVRELLLGSTTERVLRLITRPVLMVKQIPHGPYQRVLVAVDFSERSVAALRLARWVAPEAHFVVLNAFQPPLENKLRQGGADEFEIMELRDAARRDADARMDEVMAHAGFPAERLTRLVLPGPALDCVLEQEQEQDCDLIVVGKHGYGWIEEMLLGSLTKHLLALSSCDVLVASQSREGHHHHHH"
  soluble on expression in E. coli: "soluble"
- seq: "MFVLNIFSTTHKQRGLNRASCPPLGNYSNNHTLAYRVKCISEETRDSNSLVSSLNRKLWKTSVAGSDIPMIYSPFLEDMQNTLFASFETVEDYPLSEFLASAQSSKKPARIESWCYQCPKFRKIRLTYLDAGVAAQVFNAVWYPISSLELPILGVDFLSFGGKNVLCVMDFQPLMNDQYYLDKYIQPLHPIRERYADLAGRMSSRFYDENRFFSKELLFGRFDSTKPIYERLFPAFREYLDLYITLAKQTVEDDKSRSIIWQLQCEYDRYSAEKDPAMSLFRSYFGSTWAHRFVYEFLFENSRYESSLDNKT"
  soluble on expression in E. coli: "soluble"

----------
protocol: soluble on expression in E. coli; label from the status in PepcDB or PDB records

- seq: "SPGFSVGVIGDMFLLPNLNLRLLPTLHFGDKQFVFSDGEKPVASFSVRSNYLEFPLLLKYGSRRLNNMRPYLIGGPYWTMELGRKKGLEIYTKANDYGVQIGLGCDFYLPFFKLCPELRFSFGFPDVITHERPDLLDDYKLIYTQSISRARTRMIMLTFNFE"
  soluble on expression in E. coli: "not soluble"
- seq: "MDTLGLVESRSIAAGVNLADGMVKVAQVELVRAGTICSGRYFICLGGDRQAVQTAVSHAEQSGSALAGSYVISGVSPQVLAVLKKSVQPGTPGALGVVECRTVSAGIAAADAAVKRSGISLLRLVTGQGINGKSYFVFSGDVASVQEAADAAKTALGRHLIESVVIARPDASVVRALTSGVR"
  soluble on expression in E. coli: "not soluble"

----------
protocol: soluble on expression in E. coli; label from the status in PepcDB or PDB records

- seq: "MGSDKIHHHHHHMNDYYDLLDRVKILIKLGRYKEALRIIDEVIEDSPDVSFLYYKISILFTCRRFEEAKSTLNTAISIFPGSTVFRIWKMVLALETKDVLSMAQINFNDNSVASSQLNAPFQSMDFNDNYAYTFSKSVRDLIMKLGKSAIYCDLQQLKEKILTERISTETINGLYTDIMDYRNRDIVELSSYGRAFYFYSIGRIGDSFIEISSLPDHEVFKAFILGKYSDFLKQTYEIADPYTRAVRFHILRLRELSLKEIETASYIGMDELVMSKRIIEFNGSSLSTQVVVNKVPESHL"
  soluble on expression in E. coli: "not soluble"
- seq: "MSLTKAQDHDAAVLYGYFRSSASYRVRIALNLKNIIVAQRYVHLRNGEQNLEAFRWINPAGMVPYWSEGEFNLGQSLAIIEYLDETHPEPPLLPKDPKARAIVREIAYAVACDIHPIGNLRILKRLTELGVDEVDRARWSKEWVEQGFAAIEARLAQTPGPFAYGDRPTLADICIVPQIFNARRFDADLAPFERIRQIEAEAMKLDAFVAAEPGRQPDAEGHHHHHH"
  soluble on expression in E. coli: "soluble"
- seq: "VQASDRTWQSNFIRRWYFTETVEYRPLVKYDASMSWDERTVSALEGAFRSEVRARRVNGPHRDVIVSLDGAEFLVRWLTTGWPRQVAEALHATSRPDILAAPTMSPGARKAAHDAGVGWVDESGAADIHYRNTSTGTTLVIETKGAPPAPLDARIGWRRATLAVCEALLANIAGPTVASVVEATGLSMGSSAQALKFLEKNGHLASATARGPKSARLIVDRDALLDAYAEAADKLRSPISISTGVLWRDPTAGVVKAGQLWDAAGIEWAATSALSASLLAPMQTEIAPMEIYVPGRSWSDLRRAAMAAGLQEIAGGRLILRFFPTPACARLTEQNLQGFRSMLWPRVYADLRTAGVRGEDAAEHLREAMTK"
  soluble on expression in E. coli: "not soluble"
- seq: "MKYNREKLKNKVCLAIIGMPHGIKGDVLLKILSSEPQRLKTYGTLYDDRGHSYEIVMLRMQKKNAIVHFKGVEDRSAAEALRGIHLYVARDQLVDDLTEDEFYQVDLIGLRVQDCTGRILGEVSGLFNFGAGDLLEMRLNTGKTVLIPFSKAAVLEVCIASGFLVVDPVAAGLSDGGENTLEHHHHHH"
  soluble on expression in E. coli: "soluble"
- seq: "MSEQITFATSDFASNPEPRCPCILLLDVSGSMNGRPINELNAGLVTFRDELLADPLALKRVELGIVTFGPVHVEQPFTSAANFFPPILFAQGDTPMGAAITKALDMVEERKREYRANGISYYRPWIFLITDGAPTDEWQAAANKVFRGEEDKRFAFFSIGVQGADMKTLAQISVRQPLPLQGLQFRELFSWLSSSLRSVSRSTPGTEVVLEAPKGWTSV"
  soluble on expression in E. coli: "soluble"
- seq: "MMRCPECSTEGWRVLPLTVGAHVKEGLWSKIKGDFYFCSLESCEVVYFNEQTVFRKGELKTRVGVKEREEPKPVCYCNRVTEKMLLEAAEKFGKEKAVEITGAGKGKWCVVTNPSGRCCHWHLERLGFPV"
  soluble on expression in E. coli: "soluble"
- seq: "MDSGVEASGYPPVGRAKILLERAVNPIPSPRRELEQYTTPADIAVRIAVDALLRGLLEGALAADLAAGTCRLGLALLLYGASRVAAVEADGRLAGLCLGAAEKLGLGGRIFFVASRVSRRRGPLAAGSVDLVATNPPFGVWRRGADWEVLEYALRLKPRAVYAIVKSGNMGFHAAKAAGLGYSTLLISREHFPIPASMPGHRSRVRRVSVDVVLFTRGG"
  soluble on expression in E. coli: "soluble"
- seq: "MSLNNHKHARLTRLGRALLVNRVMQQNWTMRQASQAAGVSLRTGYKWLARFRSEGLDGLLDRSSRPHRSPKACAPEQVEHFAQQRRQRLPLWRIAREAGRSLATVARYMERIGLSRLASLEPPAPVRRYERASPGELLHIDTKRLGRIRGVGHRITGDRAQNRNRGIGWDAVHLAIDDFSRVSFARILDDEGGDQCAEFLHQATAYYASLGVRIDRVMTDNGSGYVSRTFRAVCVELGIRHIRTRPYTPKTNGKAERLVQTCLREWAYARPYTSSAERQAALQPFIDRYNWCRPHSALGHQPPITRIPDVNNLLRIDSEGHHHHHH"
  soluble on expression in E. coli: "not soluble"
- seq: "KFDESALVPEDQFLAQHPGPATIRVSKPNENDGQFMEITVQSLSENVGSLKEKIAGEIQIPANKQKLSGKAGFLKDNMSLAHYNVGAGEILTLSLRER"
  soluble on expression in E. coli: "soluble"
- seq: "MTGKLYGNKDNFRTQKVLIAAKLANKTVTLAGDAAPADKFPLGVTPAFEGDALLFGAESIGLHLTGTSANAETVQWLQFAEGYLLPAVLGYVLPSVSAANFDKKTVEQYKNELNGQLQVLDRVLVKKTYLVGERLSLADVSVALDLLPAFQYVLDANARKSIVNVTRWFRTVVNQPAVKEVLGEVSLASSVAQFNQAKFTELSAKVAKSAPKAEKPKKEAKPAAAAAQPEDDEPKEEKSKDPFQDMPKGTFVLDNFKRSYSNEDTATKAIPHFWENFDADNWSIWKCEYKYPEDLTLAFMSCNLINGMYQRLEKLKKNAFASMILFGTDNNSTISGIWVWKGDKLAFELSPDWQVDYESYTWTKLDAKSDATKKEVNEYLMWEGDFGGKKFNQGKIFK"
  soluble on expression in E. coli: "soluble"
- seq: "MIDFSNIETYWPMTSSAFGLFITQGGLKPIFTSLNHMWYSKYGYLTERKAKLKEIENEYIYEIEKRKLENQEKFKNEIDCEFSKIPQTSLKEPVEYILYPAINESEQYLSNETLRNMFARTIASTFNQDKEKDLHSAFVQIIKQMTPLDAQNLLLINQEGNNLIANLQIGVHYSKENLSGTVNKANNIYLSKLDYSPDIIASSIDNLTRLGLIKVDYLHYPLDSNYESIKQTTIYKSLESEINTLNLFKTSNTKYDIKIEKGKVSLTDFGKKFISVCLE"
  soluble on expression in E. coli: "not soluble"

Source: the DeepSol protein solubility set
